This section presents compounds with their documented GI50 values.
- Test system: SN12C
- assay-name: NCI tumour cell line growth inhibition, 48 h
Active and inactive are the calls of the source. Rule as the data show it: active = GI50 up to about 1.1 µM and inactive = higher.
result-type: GI50

>>> result("CCOC(=O)c1cccnc1C(OC(C)=O)OC(C)=O")
"> 100 µM (inactive)"
>>> result("O=[N+]([O-])c1cccc2c(/N=N/c3ccc4ccccc4c3O)c(O)cc(S(=O)(=O)O)c12")
"64.7 µM (inactive)"
>>> result("N#CC1(c2nc3ccccc3o2)C(=O)C(=O)N(C2C3CC4CC(C3)CC2C4)C(=O)C1=O (stereo not drawn)")
"> 100 µM (inactive)"
>>> result("NC(=O)c1ccccc1NC(=O)C(=O)C(c1cnc2ccc([N+](=O)[O-])cc2n1)[N+](=O)[O-] (stereo not drawn)")
"> 100 µM (inactive)"
>>> result("CC(C)(CN1CCCCC1)C(=O)/C=C/c1c(Cl)cccc1Cl")
"1.49 µM (inactive)"
>>> result("CN(C)C(c1ccccc1)C1COC2Cc3ccccc3C1O2 (stereo not drawn)")
"> 100 µM (inactive)"
>>> result("O=[PH](O)c1ccccn1")
"> 100 µM (inactive)"
>>> result("CNc1nc(N)cc(O)n1")
"> 100 µM (inactive)"
>>> result("O=[N+]([O-])c1cccnc1NCC1(CO)CC(Cc2ccccc2)C1 (stereo not drawn)")
"> 100 µM (inactive)"
>>> result("CC(=O)/C=C1\\CC(=O)N(C)c2ccccc2N1")
"> 100 µM (inactive)"
>>> result("Cc1cc(C)c2c(c1)CC1(Cc3c(ccc(C)c3C)C1=O)C2=O (stereo not drawn)")
"> 100 µM (inactive)"
>>> result("O=C1[C@@H]2C[C@@H](O)CN2C(=O)c2ccccc2N1CCCO")
"> 100 µM (inactive)"
>>> result("O=S(=O)([N-]c1nc2ccccc2nc1-[n+]1ccccc1)c1ccccc1")
"> 100 µM (inactive)"
>>> result("COc1cc(/C=C(\\NC(=O)c2ccccc2)c2nc3cncnc3[nH]2)cc(OC)c1OC")
"> 100 µM (inactive)"
>>> result("CSc1nc2nc(C)c(C)nc2c(=O)[nH]1")
"> 100 µM (inactive)"
>>> result("Fc1ccc(NC(=S)SCc2ccc3c(c2)OCO3)cc1F")
"16.3 µM (inactive)"
>>> result("COc1ccc(C(=O)c2cc(OC)c(OC)c(OC)c2)cc1OC")
"7.21 µM (inactive)"
>>> result("CN(C)Cc1cc(/N=N/c2ccc(Cl)cc2)ccc1OC(=O)c1ccccc1")
"14.6 µM (inactive)"
>>> result("COc1cc2c(cc1O)CC1c3c(cc(O)c(OC)c3-2)CCN1C (stereo not drawn)")
"> 100 µM (inactive)"
>>> result("COc1ccc2c(c1)CCCN1Cc3ccccc3CC21 (stereo not drawn)")
"64.1 µM (inactive)"
>>> result("COc1cc2ccc1OCc1cccc(n1)COc1ccc(cc1OC)/C=N\\c1ccc(cc1)/N=C\\2")
"> 100 µM (inactive)"
>>> result("O=c1[nH]nc(-c2ccc([N+](=O)[O-])cc2)n1/N=C/c1ccc([N+](=O)[O-])cc1")
"> 100 µM (inactive)"
>>> result("CC(=O)[C@@]1(c2ccccc2)CC2(CCN(C)CC2)O[C@H]1C")
"> 100 µM (inactive)"
